The reported numbers originate from a melting point compilation (Tetko et al.; mined from patent text by program, amines drawn as free bases though some values may be those of a salt).

measured-attribute: melting point

Request: Please give the measured melting point for this molecule: CC(C)O[Si](C)(C)C[C@](O)(c1ccc(F)cc1F)[C@@H](C)n1ncn(-c2ccc(OCC(F)(F)C(F)F)cc2)c1=O
Response: 125 to 126 °C

Request: Please give the measured melting point for this molecule: NC(=O)CNC(=O)c1ccc(F)c(-c2cccc3cc(Cc4cc(F)cc(Cl)c4)sc23)c1
Response: 159 to 160 °C

Request: Give the measured melting point of Cc1ccc(-c2ccc(CCCCC(=O)O)s2)cc1 .
Response: 124 to 127 °C

Request: # melting point lookup, item CCCCOC(=O)c1cccc(I)c1C(=O)NC(C)(C)CS(C)=O (stereo not given)
Response: 57.5 to 66.3 °C

Request: Could you share which melting point value was measured for c1ccc2cc(OCCCNC3CCCCC3)ccc2c1 ?
Response: 98 °C

---

Would you kindly list melting point for each of these compounds?

Request: May I ask what melting point has been recorded for CCN(CC)C(=O)c1cccc(I)c1C(=O)O ?
Response: 120 to 122 °C

Request: Which melting point is reported for this compound? CN1C[C@@H](C(=O)OC(C)(C)C)NC1=O
Response: 135 to 136 °C

Request: I have this compound here, FC(F)(F)c1cccc(CCc2nnc(-c3ccc4nccn4c3)o2)c1 , and I need its recorded melting point.
Response: 152 to 153 °C

Request: Would you mind telling me what melting point value was observed for Cc1ccc(C2CNCc3[nH]c4ccccc4c32)cc1 (stereo unspecified) ?
Response: 223 to 224 °C

Request: I am curious: what melting point value has been reported for O=C(O)Cc1c(C(=O)C2CCCCC2)[nH]c2cc(Cl)ccc12 ?
Response: 206 to 209 °C

Request: Consider the compound shown here: CC(C)(C)OC(=O)N[C@@H](Cc1ccc(OCc2ccccc2)cc1)C(=O)NCCN1CCCCC1 What is its recorded melting point?
Response: 54 to 61 °C

---

Kindly supply the reported melting point values for the records listed here.

Request: Reported melting point for COc1ccc(CNc2ccccc2C(=O)Nc2ccc(Br)c(C(F)(F)F)c2)cn1 : what is it?
Response: 101 to 103 °C

Request: Param item = CCOC(=O)c1cc2c3ccccc3n(CCCc3ccccc3)c2cn1 ; retrieve measured melting point.
Response: 140 to 142 °C

Request: Which measured melting point value corresponds to COC(=O)C=CC(=O)N[C@@H](CO)c1ccccc1 ?
Response: 75 to 77 °C

Request: Sample Cc1cc(-c2ccc(C(F)(F)F)nc2)nc(-c2ccnc(-c3ccc(S(N)(=O)=O)s3)c2)n1 — what was its melting point?
Response: 289 °C

Request: Would you mind telling me what melting point value was observed for Cc1cc2c(Cl)nc(N)nc2o1 ?
Response: 255 to 257 °C

Request: I'd like to know its melting point. The molecule in question is O=C1COCC2CCCN12 (stereo not given)
Response: 63.5 to 66 °C

Request: For Cc1ccsc1-c1ccc(C2(C)NC(=O)NC2=O)cc1 (stereo not given) , what is its reported melting point?
Response: 201 to 202 °C

Request: Recorded melting point for O=C(O)CCc1cc2cc(F)c(Cl)cc2n1S(=O)(=O)c1ccccc1 , please?
Response: 199 to 204 °C

Request: Would you kindly share the measured melting point for Cc1cccc(C)c1Oc1nc(Cl)nc(Oc2c(C)cccc2C)n1 ?
Response: 161 to 162 °C

Request: I have this molecule here, O=[N+]([O-])c1cnc(Sc2n[nH]c(-c3ccccc3)n2)s1 , and I need its recorded melting point.
Response: 155 to 157 °C
